Tested on: NCI-H1734
assay: relative viability (nuclei count vs DMSO), 5 days (fraction); higher = more cells survive
testContext: first compound 0.01 µM
The label YES is reserved for relative viability strictly under 0.6; NO covers values equal to or above it.

| compound | qualitativeLabel |
| --- | --- |
| Cc1cn(-c2cc(NC(=O)c3ccc(C)c(Nc4nccc(-c5cccnc5)n4)c3)cc(C(F)(F)F)c2)cn1 [Nilotinib] + C[C@]1(O)C[C@@H](c2nc(-c3ccc4ccc(-c5ccccc5)nc4c3)c3c(N)nccn32)C1 [Linsitinib] (partner 1 µM) | NO |
| Cc1cn(-c2cc(NC(=O)c3ccc(C)c(Nc4nccc(-c5cccnc5)n4)c3)cc(C(F)(F)F)c2)cn1 [Nilotinib] + CS(=O)(=O)N1CCN(Cc2cc3nc(-c4cccc5[nH]ncc45)nc(N4CCOCC4)c3s2)CC1 [Pictilisib] (partner 1 µM) | YES |
| Cc1cn(-c2cc(NC(=O)c3ccc(C)c(Nc4nccc(-c5cccnc5)n4)c3)cc(C(F)(F)F)c2)cn1 [Nilotinib] + O=C(c1cc(Cc2n[nH]c(=O)c3ccccc23)ccc1F)N1CCN(C(=O)C2CC2)CC1 [Olaparib] (partner 8 µM) | NO |

Asked: Criterion: relative viability strictly below 0.6. Is it met by Cc1cn(-c2cc(NC(=O)c3ccc(C)c(Nc4nccc(-c5cccnc5)n4)c3)cc(C(F)(F)F)c2)cn1 [Nilotinib] + NC(=O)Nc1cc(-c2cccc(F)c2)sc1C(=O)N[C@H]1CCCNC1 [AZD7762] (partner 0.2 µM) ?
Given back: YES

Asked: Criterion: relative viability strictly below 0.6. Is it met by Cc1cn(-c2cc(NC(=O)c3ccc(C)c(Nc4nccc(-c5cccnc5)n4)c3)cc(C(F)(F)F)c2)cn1 [Nilotinib] + CCNC(=O)c1noc(-c2cc(C(C)C)c(O)cc2O)c1-c1ccc(CN2CCOCC2)cc1 [Luminespib] (partner 0.01 µM) ?
Given back: YES

* * *

Some compounds, each annotated with its measured relative viability.
Tested on: HCC-366
assay: relative viability (nuclei count vs DMSO), 5 days (fraction); higher = more cells survive
testContext: first compound 2 µM
// response body must contain only the number

Look over these answered cases.
| compound | targetEntity | measuredEndpoint | observedValue |
| --- | --- | --- | --- |
| CN1CCN(CCOc2cc(OC3CCOCC3)c3c(Nc4c(Cl)ccc5c4OCO5)ncnc3c2)CC1 [Saracatinib] + O=C(c1cc(Cc2n[nH]c(=O)c3ccccc23)ccc1F)N1CCN(C(=O)C2CC2)CC1 [Olaparib] (partner 8 µM) | HCC-366 | relative viability | 0.199 |
| CN1CCN(CCOc2cc(OC3CCOCC3)c3c(Nc4c(Cl)ccc5c4OCO5)ncnc3c2)CC1 [Saracatinib] + CC(=O)c1c(C)c2cnc(Nc3ccc(N4CCNCC4)cn3)nc2n(C2CCCC2)c1=O [Palbociclib] (partner 0.5 µM) | HCC-366 | relative viability | 0.164 |
| CN1CCN(CCOc2cc(OC3CCOCC3)c3c(Nc4c(Cl)ccc5c4OCO5)ncnc3c2)CC1 [Saracatinib] + Cc1cc(Nc2cc(N3CCN(C)CC3)nc(Sc3ccc(NC(=O)C4CC4)cc3)n2)n[nH]1 [Tozasertib] (partner 0.1 µM) | HCC-366 | relative viability | 0.0412 |
| Cc1csc(=NC2CCCCC2)n1/N=C/c1ccc(O)c(O)c1O [MIM1] + Nc1ncn([C@H]2C[C@H](O)[C@@H](CO)O2)c(=O)n1 [Decitabine] (partner 2 µM) | HCC-366 | relative viability | 0.354 |

Asked: Fill in reported relative viability for this entry: Cc1csc(=NC2CCCCC2)n1/N=C/c1ccc(O)c(O)c1O [MIM1] + CC(=O)c1c(C)c2cnc(Nc3ccc(N4CCNCC4)cn3)nc2n(C2CCCC2)c1=O [Palbociclib] (partner 0.5 µM)
Given back: 0.236

* * *

System: NCI-H358
assay: relative viability (nuclei count vs DMSO), 5 days (fraction); higher = more cells survive
testContext: first compound 6.325 µM
measuredEndpoint: relative viability

Look over these answered cases.
| molecule | relative viability |
| --- | --- |
| Cc1csc(=NC2CCCCC2)n1/N=C/c1ccc(O)c(O)c1O [MIM1] + NC(=O)Nc1cc(-c2cccc(F)c2)sc1C(=O)N[C@H]1CCCNC1 [AZD7762] (partner 0.2 µM) | 0.342 |
| Cc1csc(=NC2CCCCC2)n1/N=C/c1ccc(O)c(O)c1O [MIM1] + O=C(c1cc(Cc2n[nH]c(=O)c3ccccc23)ccc1F)N1CCN(C(=O)C2CC2)CC1 [Olaparib] (partner 8 µM) | 0.379 |
| Cc1csc(=NC2CCCCC2)n1/N=C/c1ccc(O)c(O)c1O [MIM1] + Nc1nc2[nH]cc(CCc3ccc(C(=O)N[C@@H](CCC(=O)O)C(=O)O)cc3)c2c(=O)[nH]1 [Pemetrexed] (partner 0.2 µM) | 0.152 |

Asked: Fill in reported relative viability for this entry: Cc1csc(=NC2CCCCC2)n1/N=C/c1ccc(O)c(O)c1O [MIM1] + CS(=O)(=O)CCNCc1ccc(-c2ccc3ncnc(Nc4ccc(OCc5cccc(F)c5)c(Cl)c4)c3c2)o1 [Lapatinib] (partner 2 µM)
Given back: 0.36

* * *

Some molecules, each annotated with its measured relative viability.
Tested on: EKVX
assay: relative viability (nuclei count vs DMSO), 5 days (fraction); higher = more cells survive
testContext: first compound 0.2 µM
// response body must contain only the number

| molecule | relative viability |
| --- | --- |
| Cc1csc(=NC2CCCCC2)n1/N=C/c1ccc(O)c(O)c1O [MIM1] + C[C@@H](Oc1cc(-c2cnn(C3CCNCC3)c2)cnc1N)c1c(Cl)ccc(F)c1Cl [Crizotinib] (partner 1 µM) | 0.989 |
| CCNC(=O)c1noc(-c2cc(C(C)C)c(O)cc2O)c1-c1ccc(CN2CCOCC2)cc1 [Luminespib] + NC(=O)Nc1cc(-c2cccc(F)c2)sc1C(=O)N[C@H]1CCCNC1 [AZD7762] (partner 0.2 µM) | 0.104 |
| CCNC(=O)c1noc(-c2cc(C(C)C)c(O)cc2O)c1-c1ccc(CN2CCOCC2)cc1 [Luminespib] + Cc1nc(Nc2ncc(C(=O)Nc3c(C)cccc3Cl)s2)cc(N2CCN(CCO)CC2)n1 [Dasatinib] (partner 0.075 µM) | 0.393 |

Lab note: next molecule to report on.
Asked: Fill in reported relative viability for this entry: CCNC(=O)c1noc(-c2cc(C(C)C)c(O)cc2O)c1-c1ccc(CN2CCOCC2)cc1 [Luminespib] + CS(=O)(=O)N1CCN(Cc2cc3nc(-c4cccc5[nH]ncc45)nc(N4CCOCC4)c3s2)CC1 [Pictilisib] (partner 1 µM)
Given back: 0.0934

* * *

Tested on: IA-LM
assay: relative viability (nuclei count vs DMSO), 5 days (fraction); higher = more cells survive
testContext: first compound 0.1 µM
Some compounds, each annotated with its measured relative viability.
// response body must contain only the number

Look over these answered cases.
| compound | observedValue |
| --- | --- |
| Cc1cn(-c2cc(NC(=O)c3ccc(C)c(Nc4nccc(-c5cccnc5)n4)c3)cc(C(F)(F)F)c2)cn1 [Nilotinib] + COc1cc2c(Oc3ccc(NC(=O)C4(C(=O)Nc5ccc(F)cc5)CC4)cc3F)ccnc2cc1OCCCN1CCOCC1 [Foretinib] (partner 0.25 µM) | 1.17 |
| Cc1cn(-c2cc(NC(=O)c3ccc(C)c(Nc4nccc(-c5cccnc5)n4)c3)cc(C(F)(F)F)c2)cn1 [Nilotinib] + CC1(C)CCC(c2ccc(Cl)cc2)=C(CN2CCN(c3ccc(C(=O)NS(=O)(=O)c4ccc(N[C@H](CCN5CCOCC5)CSc5ccccc5)c(S(=O)(=O)C(F)(F)F)c4)cc3)CC2)C1 [Navitoclax] (partner 0.5 µM) | 0.889 |
| Cc1cn(-c2cc(NC(=O)c3ccc(C)c(Nc4nccc(-c5cccnc5)n4)c3)cc(C(F)(F)F)c2)cn1 [Nilotinib] + CC(C)C[C@H](NC(=O)[C@H](Cc1ccccc1)NC(=O)c1cnccn1)B(O)O [Bortezomib] (partner 0.002 µM) | 0.714 |

Asked: Fill in reported relative viability for this entry: Cc1cn(-c2cc(NC(=O)c3ccc(C)c(Nc4nccc(-c5cccnc5)n4)c3)cc(C(F)(F)F)c2)cn1 [Nilotinib] + Cc1nc(NC(=O)N2CCC[C@H]2C(N)=O)sc1-c1ccnc(C(C)(C)C(F)(F)F)c1 [Alpelisib] (partner 2 µM)
Given back: 0.963

* * *

Some molecules, each annotated with its measured relative viability.
Tested on: A549
assay: relative viability (nuclei count vs DMSO), 5 days (fraction); higher = more cells survive
testContext: first compound 0.06325 µM
// response body must contain only the number

Look over these answered cases.
| molecule | relative viability |
| --- | --- |
| CCNC(=O)c1noc(-c2cc(C(C)C)c(O)cc2O)c1-c1ccc(CN2CCOCC2)cc1 [Luminespib] + CS(=O)(=O)N1CCN(Cc2cc3nc(-c4cccc5[nH]ncc45)nc(N4CCOCC4)c3s2)CC1 [Pictilisib] (partner 1 µM) | 0.0437 |
| CCNC(=O)c1noc(-c2cc(C(C)C)c(O)cc2O)c1-c1ccc(CN2CCOCC2)cc1 [Luminespib] + Cc1nc(NC(=O)N2CCC[C@H]2C(N)=O)sc1-c1ccnc(C(C)(C)C(F)(F)F)c1 [Alpelisib] (partner 2 µM) | 0.0392 |

Lab note: next molecule to report on.
Asked: Fill in reported relative viability for this entry: CCNC(=O)c1noc(-c2cc(C(C)C)c(O)cc2O)c1-c1ccc(CN2CCOCC2)cc1 [Luminespib] + N=C(N)NC(=N)NCCc1ccccc1 [Phenformin] (partner 250 µM)
Given back: 0.0194
